Measured values drawn from PubChem BioAssay (NCI) for this set.

- Test system: IGROV1 ovarian
- Assay Remarks: NCI tumour cell line growth inhibition, 48 h
Hi there, I'd appreciate the recorded TGI for every entry that follows.

These recorded examples may help you get a feel for the data.
Bench note: what TGI did COc1cccc(C2SC(N)=Nc3c2c(C)nn3C(=O)c2ccccc2O)c1 (stereo unspecified) show?
> 10 µM

Bench note: what TGI did Nc1nc(SCCC/C=C/I)nc2c1ncn2C1OC(COP(=O)(O)O)C(O)C1O (stereo unspecified) show?
> 100 µM

Bench note: what TGI did CC(C)(C)c1cc2ccc(C(N)=O)cc2c(=O)[nH]1 show?
> 100 µM

Bench note: what TGI did COc1ccc(CCN=C2NC(=O)/C(=C/c3ccc4ncccc4c3)S2)cc1 show?
> 25 µM

Your task in this section: give TGI for each listed record.
1. O=C1CCC2(c3ccc(Cl)cc3)Nc3ccncc3N12 (stereo unspecified)
2. CCCCOC(=O)Nc1ccc(S(=O)(=O)Nc2ccccc2Cl)cc1
3. O=C(/C=C/c1ccccc1)C[C@@H](O)C[C@@H]1CC=CC(=O)O1
4. Cc1cc2c(C)[nH]nc2c(C(=O)O)c1C
5. Nc1n[nH]c2cccc(C#Cc3cccc(C(=O)Nc4ccc(CN5CCOCC5)c(C(F)(F)F)c4)c3)c12
6. NC1(c2cc3ccccc3s2)CCCC1

1. > 10 µM
2. 49 µM
3. 31.2 µM
4. > 100 µM
5. 7.01 µM
6. > 100 µM

Bench note: what TGI did Cc1ccc(N(Cc2ccccc2)Cc2ccccc2)cc1 show?
> 100 µM
